# assay: protein stability index of a GFP-peptide fusion (GPS, HEK-293T) (PSI 1-6); higher = more stable;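 also: 24-mer peptide tiles fused after GFP, lentivirally expressed, FACS-sorted into six equal bins by GFP/DsRed ratio, decoded by Illumina sequencing, PSI is the read-weighted mean bin number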
# appliedConditions: treatment: MLN4924 1 uM, 8 h; c terminus: a fixed tail appended
The following sequences are listed with their measured protein stability index values.

The following sequences have reported results that may help.
sequencedata="QDEPRQGCQPEDRRRRIIINVGGI [KCNG1]" assayendpoint="protein stability index" testvalue=4.02
sequencedata="TEQLIEAVNNGDFEAYAKICDPGL [CAMK2B]" assayendpoint="protein stability index" testvalue=4.19
sequencedata="KQQWEIMHKHNETSQKIAARAFAQ [RSPH3]" assayendpoint="protein stability index" testvalue=3.38
sequencedata="TPSLLRFALASLLQSAPDVKGRVR [ZSWIM9]" assayendpoint="protein stability index" testvalue=2.53
sequencedata="DKKTCTKIDYCASSNHGCQHECVN [MATN2]" assayendpoint="protein stability index" testvalue=4.23

Kindly note the recorded protein stability index for RLPCSFVTLALLGSYTVQSELGDY [EPB41L3] , which is 2.48

The measured protein stability index associated with LPTITSELSGAPRCHTVPCAGSTA [PXN] reads 3.83

Form field protein stability index, entry HSVFEFLAFKNDIQFWNSRQSLEG [CLPTM1] : 2.13

protein stability index in this record for VARILIDLCSDVNVCSLLAQTPLH [RIPK4] : 2.57

# sequence KVLTEPEVRYYLRQIVSGLKYLHE [PLK2] ; its protein stability index = 2.42

Form: sequence = YCHPDSETDEDEEEGDEQQRLLNT [GMCL1] ; protein stability index = 5.2

Lab note: measured protein stability index of DDCDDDDDDAQILPSPVQACSEDS [DRICH1] was 5.62

The sequence listed as FPNWAMALLITLIVVATLPIPVVF [SLC6A17] shows protein stability index equal to 3.04

---

# assay: protein stability index of a GFP-peptide fusion (GPS, HEK-293T) (PSI 1-6); higher = more stable
# appliedConditions: treatment: DMSO; c terminus: a fixed tail appended
Recorded protein stability index by entry

sequencedata="KETAHDLDVKSPPEPRSEVVPARL [RIPK4]" assayendpoint="protein stability index" testvalue=4.8

# protein stability index (sequence: KLCKKGLAATTSMAYAKLMLTVMT [FANCE] ) is 2.33

Data point: VDLNRNFPDLNTYIYYNEKYGGPN [CPN1] ; protein stability index = 2.64

Field protein stability index (entry VMAWVKYSIQERRPQLPQVLQHVR [KLHL20] ) reads 2.41

Measured protein stability index of SAQNGLASSLPAEVHSLTLSPPEQ [PLAGL1] : 5

Reported protein stability index ( KRMSELCIDFNKNLNEDDTFLVFS ) = 2.08

Quick note, protein stability index for DYEKMFGTKCHGCDFKIDAGDRFL [PDLIM7] landed at 2.92

Item: AKLVPMGFTTATEFHQRRSEIIQI [RAD51] | protein stability index: 2.56

Form field protein stability index, entry LQMEFKAVQQVQRLPFLSSSNLSL [POMP] : 2.15

Notebook: VLEIEQSMNRVKNISDADVHNAMD [FEM1B] , protein stability index read as 4.13

Entry SWVVRVQAAKLLGSMEQVSSHFLE [INTS4] , protein stability index reported as 2.47

response.value for WVHKHFTEDIQTRQYRSIEVLIGA [SRPK2] (field: protein stability index) = 2.37

Entry under test: NEKQLHTLRTCYAANPRPDALMKE [ISL2] . Its protein stability index was 4.05

Sure, the documented protein stability index for SSLFDLSVLKLHHSLQQSEPDLRH [SERTAD1] is 3.23

For RRGIALIFNHERFFWHLTLPERRG [CASP6] the sequence record lists protein stability index as 2.75

Record TGVQEVLSALLRATPGEYSVNICG [SPAG8] , field protein stability index: 2.5

The reported value for WNVAAPLYLKQSDLASAAAKQIME [INTS4] in terms of protein stability index is 2.67

protein stability index for GNMFPTIGDVHLAPFTDEQLYMEQ [CARM1] is 3.93

protein stability index for LANNQCMATESVDHELGRCTDSVV [EHMT1] is 4.74

Note to self: protein stability index recorded for LLPESGIVADIELENVLDPDSFYE [TFE3] was 4.47

Record TTLGPKLASQALTPPPGPASAQPL [TFE3] , field protein stability index: 4.4

# protein stability index of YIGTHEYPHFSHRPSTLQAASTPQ [OAS1] = 2.61
